Target: serotonin 2A (5-HT2A) receptor (Homo sapiens, UniProt P28223)
Sequence (P28223 whole entry, species assumed): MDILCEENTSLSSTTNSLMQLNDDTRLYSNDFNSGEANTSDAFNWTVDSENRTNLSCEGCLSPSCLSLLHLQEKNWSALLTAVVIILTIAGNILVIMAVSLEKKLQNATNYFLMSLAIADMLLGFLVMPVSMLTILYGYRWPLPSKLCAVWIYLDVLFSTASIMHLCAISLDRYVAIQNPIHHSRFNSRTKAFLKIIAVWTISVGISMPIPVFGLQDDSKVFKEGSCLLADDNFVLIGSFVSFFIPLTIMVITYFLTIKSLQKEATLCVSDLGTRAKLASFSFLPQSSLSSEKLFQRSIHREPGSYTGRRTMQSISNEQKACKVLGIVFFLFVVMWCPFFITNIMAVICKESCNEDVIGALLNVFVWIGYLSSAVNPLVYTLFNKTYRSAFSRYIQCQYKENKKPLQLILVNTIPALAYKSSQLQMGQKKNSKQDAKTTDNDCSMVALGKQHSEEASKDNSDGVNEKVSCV
Experiment: Measurement of inhibitory activity against serotonin 2A receptor (in vitro)
Assay type: biochemical
Settings: inhibitory activity against serotonin 2A (5-HT2A) receptor
Structures can show the parent of a compound that is named as a salt.
Provide the recorded pIC50 for the entries that follow.
To interpret pIC50, take it as minus log10 of a concentration measured in moles per litre.

Look up pIC50 for this compound: N[C@@H](Cc1ccc(OCCCCN2CCC(=C3c4ccc(Cl)cc4CCc4cccnc43)CC2)cc1)C(=O)O [Example 14, trihydrochloride]
6.73

pIC50 lookup needed for N[C@@H](Cc1ccc(OCCCCN2CCC(=C3c4ccc(Cl)cc4CCc4cccnc43)CC2)c(Cl)c1)C(=O)O [Example 20, trihydrochloride] , thanks.
8.68

Param item = O=C1C2CCCCC2C(=O)N1CCCCN1CCC(=C2c3ccc(Cl)cc3CCc3cccnc32)CC1 (stereo not shown) ; retrieve measured pIC50.
9.72

Which pIC50 is listed for "CN1CCC(=C2c3ccc(Cl)cc3CCc3cccnc32)CC1" ?
6.92

###

Counter-ions that a name gives are not always drawn.
reported-endpoint: IC50 (nM)
# unit: nM | format: bare number

Hello, I am looking for reported IC50 with serotonin 2A (5-HT2A) receptor (Homo sapiens, UniProt P28223) for N[C@@H](Cc1ccc(OCCCN2CCC(=C3c4ccc(Cl)cc4CCc4cccnc43)CC2)cc1)C(=O)O [Example 22, trihydrochloride] . Could you help?
1.3

Missing value: IC50, serotonin 2A (5-HT2A) receptor (Homo sapiens, UniProt P28223), entry N[C@@H](Cc1ccc(OCCCN2CCC(=C3c4ccc(Cl)cc4CCc4cccnc43)CC2)c(Cl)c1)C(=O)O [Example 21, trihydrochloride] . Fill in?
2.1

Checklist item: IC50 tested on serotonin 2A (5-HT2A) receptor (Homo sapiens, UniProt P28223), entry O=C1C2C(C(=O)N1CCCCN1CCC(=C3c4ccc(Cl)cc4CCc4cccnc43)CC1)[C@H]1CC[C@@H]2C1 (stereo partly shown) , value?
0.15

serotonin 2A (5-HT2A) receptor (Homo sapiens, UniProt P28223) / IC50 / OC(CN1CCC(=C2c3ccc(Cl)cc3CCc3cccnc32)CC1)c1ccc(Br)cc1 (stereo not shown) : value?
1.19

This collection of values is drawn from patent US12662461B2.
